# key: entry, value: cell viability (kinase inhibitor library screening)
# System: 501Mel cells (parental)
# procedure-summary: Kinase inhibitor library screening, PrestoBlue cell viability, 1 or 10 μM, 72 h
# test-context: 501Mel Parental, 10μΜ; in %
# Description: After 72 h of treatment, cell viability was assessed using the PrestoBlue Cell Viability Reagent (ThermoFisher Scientific). Measurements were performed with the CLARIOstar Monochromator microplate reader (BMG Labtech). Kinase inhibitor library screening. […] Drugs were added at 2 different concentrations, 1 and 10 μM, for 72 h and cell viability was assessed using the PrestoBlue Cell Viability assay. […] Each cell line was analyzed at least in duplicate. […]
parameter-measured: cell viability (kinase inhibitor library screening)

molecule | system-name | observed-value
FC(F)(F)c1ccc(Nc2nc3ccc(Oc4ccnc(-c5ncc(C(F)(F)F)[nH]5)c4)cc3[nH]2)cc1 | 501Mel cells (parental) | 91.6
Cc1ccc(C(=O)Nc2cccc(C(F)(F)F)c2)cc1Nc1nc(-c2cccnc2)nc2c1cnn2C [NVP-BHG712, reference compound] | 501Mel cells (parental) | 27.8
Oc1cc(O)cc(/C=C/c2ccc(O)c(O)c2)c1 | 501Mel cells (parental) | 84.8
Cl.Cl.Clc1ccc(Nc2nnc(Cc3ccncc3)c3ccccc23)cc1 [Vatalanib dihydrochloride (PTK787)] | 501Mel cells (parental) | 93.0
Cc1cc2c(F)c(Oc3ncnn4cc(OC[C@@H](C)O)c(C)c34)ccc2[nH]1 | 501Mel cells (parental) | 93.4
COc1ccc2cc(-c3nc(-c4ccc([S+](C)[O-])cc4)[nH]c3-c3ccncc3)ccc2c1 (stereo not drawn) | 501Mel cells (parental) | 90.5
Cc1nc(Nc2ncc(C(=O)Nc3c(C)cccc3Cl)s2)cc(N2CCN(CCO)CC2)n1 | 501Mel cells (parental) | 73.7
Cc1ccc(Nc2nccc(N(C)c3ccc4c(C)n(C)nc4c3)n2)cc1S(N)(=O)=O.Cl [Pazopanib HCl] | 501Mel cells (parental) | 86.1
Cc1cc(C)c(/C=C2\C(=O)Nc3ccccc32)[nH]1 [Semaxanib (SU5416)] | 501Mel cells (parental) | 90.0

---

# System: A375-GP cells (Dabrafenib-resistant)
# procedure-summary: Kinase inhibitor library screening, PrestoBlue cell viability, 1 or 10 μM, 72 h
# test-context: A375 GP, 10μΜ; in %
Binary call on cell viability (kinase inhibitor library screening) with cut-off 40: strictly below means Satisfied, and equality or higher means Not satisfied.

compound | label
CC1(C)CNc2cc(NC(=O)c3cccnc3NCc3ccncc3)ccc21 [Motesanib Diphosphate] | Not satisfied
COC(=O)c1ccc2c(c1)NC(=O)/C2=C(\Nc1ccc(N(C)C(=O)CN2CCN(C)CC2)cc1)c1ccccc1 | Satisfied
Cc1cc(C)c(/C=C2\C(=O)Nc3ccccc32)[nH]1 [Semaxanib (SU5416)] | Not satisfied
Cc1ccc(C(=O)Nc2cccc(C(F)(F)F)c2)cc1Nc1nc(-c2cccnc2)nc2c1cnn2C [NVP-BHG712, reference compound] | Satisfied
Cc1cccc(-c2[nH]c(C(C)(C)C)nc2-c2ccc3nccnc3c2)n1 | Not satisfied
COc1cc2/c(=N/c3ccc(Br)cc3F)nc[nH]c2cc1OCC1CCN(C)CC1 [Vandetanib (Zactima)] | Satisfied
CNC(=O)c1cc(Oc2ccc(NC(=O)Nc3ccc(Cl)c(C(F)(F)F)c3)cc2)ccn1 | Satisfied
C=CCn1c(=O)c2cnc(Nc3ccc(N4CCN(C)CC4)cc3)nc2n1-c1cccc(C(C)(C)O)n1 [MK-1775, reference compound] | Satisfied
c1ccc2c(-c3cnn4cc(-c5ccc(N6CCNCC6)cc5)cnc34)ccnc2c1 | Satisfied
CCN(CC)CCNC(=O)c1c(C)[nH]c(/C=C2\C(=O)Nc3ccc(F)cc32)c1C.O=C(O)C[C@H](O)C(=O)O [Sunitinib Malate (Sutent)] | Not satisfied
COc1cc2nccc(Oc3ccc(NC(=O)C4(C(=O)Nc5ccc(F)cc5)CC4)cc3)c2cc1OC [XL-184 free base (Cabozantinib)] | Not satisfied
COc1cc2c(Oc3ccc4[nH]c(C)cc4c3F)ncnc2cc1OCCCN1CCCC1 | Satisfied
COc1cc2nccc(Oc3ccc(NC(=O)NC4CC4)c(Cl)c3)c2cc1C(N)=O | Not satisfied
C[C@@H](N)[C@H]1CC[C@H](C(=O)Nc2ccncc2)CC1.Cl.Cl [Y-27632 2HCl] | Not satisfied
NC(=O)c1ccc(-c2nc(-c3ccc4c(c3)OCO4)c(-c3ccccn3)[nH]2)cc1 | Not satisfied

---

# System: IGR37-XP cells (Vemurafenib-resistant)
# procedure-summary: Kinase inhibitor library screening, PrestoBlue cell viability, 1 or 10 μM, 72 h
# test-context: IGR37 XP, 10μΜ, 72 h
Binary call on cell viability, IGR37 XP, 10μΜ with cut-off 30%: strictly below means t, and equality or higher means f.

compound | label
N#C/C(=C\c1ccc(O)c(O)c1)C(=O)NCc1ccccc1 | f
CN(C)Cc1cccc(N/C(=C2\C(=O)Nc3cc(C(=O)N(C)C)ccc32)c2ccccc2)c1 | f
CS(=O)(=O)CCNCc1ccc(-c2ccc3ncnc(Nc4ccc(OCc5cccc(F)c5)c(Cl)c4)c3c2)o1.Cc1ccc(S(=O)(=O)O)cc1.Cc1ccc(S(=O)(=O)O)cc1 [Lapatinib Ditosylate (Tykerb)] | t
O=C(NOCC1CC1)c1ccc(F)c(F)c1Nc1ccc(I)cc1Cl | t
C=CC(=O)Nc1cccc(Sc2nc(Nc3ccc(N4CCN(C)CC4)cc3)ncc2Cl)c1 | t
CC(C)(C)c1cc(C=C(C#N)C#N)cc(Br)c1O | f
O=c1cc(N2CCOCC2)oc2c(-c3cccc4c3sc3ccccc34)cccc12 | t
C=CC(=O)Nc1cc2c(Nc3ccc(F)c(Cl)c3)ncnc2cc1OCCCN1CCOCC1 | t
Nc1cccc(-c2cc3c(Oc4cccc(O)c4)ncnc3[nH]2)c1 | f
Cc1cnc(Nc2ccc(OCCN3CCCC3)cc2)nc1Nc1cccc(S(=O)(=O)NC(C)(C)C)c1 [TG101348 (SAR302503)] | t

---

# System: 501Mel-GP cells (Dabrafenib-resistant)
# procedure-summary: Kinase inhibitor library screening, PrestoBlue cell viability, 1 or 10 μM, 72 h
# test-context: 501Mel GP, 10μΜ, 72 h
# key: entry, value: cell viability (kinase inhibitor library screening)
parameter-measured: cell viability (kinase inhibitor library screening)

molecule | observed-value
Cc1ccc(NC(=O)c2ccc(CN3CCN(C)CC3)cc2)cc1Nc1nc(-c2cccnc2)cs1 | 85.2%
CCOc1ccn(-c2ccc(F)cc2)c(=O)c1C(=O)Nc1ccc(Oc2ccnc(N)c2Cl)c(F)c1 | 53.2%
CNC(=O)c1cc(Oc2ccc(NC(=O)Nc3ccc(Cl)c(C(F)(F)F)c3)c(F)c2)ccn1 | 48.3%
Cn1cc(-c2ccc3ncc(Cc4ccc5ncccc5c4)n3n2)cn1 | 69.4%
Cc1csc(-c2nnc(Nc3ccc(Oc4ncccc4-c4ccnc(N)n4)cc3)c3ccccc23)c1 | 60.6%
CC(=O)NCC(=O)N1[C@@H]2CC[C@H]1c1ccc(Nc3ncc(C(F)(F)F)c(NC4CCC4)n3)cc12 | 8.3%
COCCNCc1ccc(-c2cc3nccc(Oc4ccc(NC(=S)NC(=O)Cc5ccc(F)cc5)cc4F)c3s2)nc1 | 68.8%
CC(C)NC[C@@H](C(=O)N1CCN(c2ncnc3c2[C@H](C)C[C@H]3O)CC1)c1ccc(Cl)cc1 | 56.7%
C[C@@H](Oc1cc(-c2cnn(C3CCNCC3)c2)cnc1N)c1c(Cl)ccc(F)c1Cl | -0.355%
O=c1cc(-c2cccc3c2Sc2ccccc2S3)oc(N2CCOCC2)c1 | 76.6%
CO[C@@H](C(=O)N1Cc2n[nH]c(NC(=O)c3ccc(N4CCN(C)CC4)cc3)c2C1)c1ccccc1 | 72.3%
Clc1ccc(C2(c3ccc(-c4cn[nH]c4)cc3)CCNCC2)cc1 | 20.5%
Cc1[nH]c(/C=C2\C(=O)Nc3ccc(S(=O)(=O)N(C)c4cccc(Cl)c4)cc32)c(C)c1C(=O)N1CCN(C)CC1 | 33.6%
Nc1ncnc2c1c(-c1cnc3[nH]ccc3c1)nn2C1CCCC1 [PP-121, reference compound] | 5.9%
CCn1cc(-c2ccnc3[nH]c(-c4cccc(CN(C)C)c4)cc23)c(-c2ccc(NC(=O)N(C)C)cc2)n1 | 50.8%
CCCCCCCCCCCCc1ccc(S(=O)(=O)Nc2nncs2)cc1 | 95.0%

---

# Tested on: A375-GP cells (Dabrafenib-resistant)
# procedure-summary: Kinase inhibitor library screening, PrestoBlue cell viability, 1 or 10 μM, 72 h
# test-context: A375 GP, 10μΜ; in %
# key: entry, value: cell viability (kinase inhibitor library screening)
parameter-measured: cell viability (kinase inhibitor library screening)

compound | observed-value
COc1cc(Nc2ncc(F)c(Nc3ccc4c(n3)NC(=O)C(C)(C)O4)n2)cc(OC)c1OC.O=S(=O)(O)c1ccccc1 [R406] | 54.6
Cc1ccc(NC(=O)c2cccc(N(C)C)c2)cc1NC(=O)c1ccc(O)cc1 [ZM 336372] | 82.7
CN1CCN(CCOc2cc(OC3CCOCC3)c3c(Nc4c(Cl)ccc5c4OCO5)ncnc3c2)CC1 [Saracatinib (AZD0530)] | 56.9
Cc1cc2c(F)c(Oc3ncnn4cc(OC[C@@H](C)OC(=O)[C@H](C)N)c(C)c34)ccc2[nH]1 [Brivanib alaninate (BMS-582664)] | 80.1
Oc1cc(O)cc(/C=C/c2ccc(O)c(O)c2)c1 [Piceatannol] | 80.7
CCn1c(N)c(C(=O)NC)c(=O)c2ccc(C#C[C@@](C)(O)COC)nc21 [SAR131675] | 87.6
O=C(NCc1ccccc1)c1csc(Nc2ccncn2)n1 [Thiazovivin] | 87.9
Cc1[nH]c(/C=C2\C(=O)Nc3ccccc32)c(C)c1CCC(=O)O [TSU-68] | 94.6
COc1cc2nccc(Oc3ccc(NC(=O)Nc4ccc(F)cc4F)c(F)c3)c2cc1OC [Ki8751] | 77.5
Cc1cc2c(F)c(Oc3ncnn4cc(OC[C@@H](C)O)c(C)c34)ccc2[nH]1 [Brivanib (BMS-540215)] | 79.9
COc1cc(Nc2ncc(F)c(Nc3ccc4c(n3)N(COP(=O)([O-])[O-])C(=O)C(C)(C)O4)n2)cc(OC)c1OC.[Na+].[Na+] | 57.6
COc1ccc2cc(-c3nc(-c4ccc([S+](C)[O-])cc4)[nH]c3-c3ccncc3)ccc2c1 (stereo not drawn) [Tie2 kinase inhibitor] | 82.6
CNC(=O)c1cc(COc2nnc(Nc3ccc(Cl)cc3)c3ccoc23)ccn1 [Telatinib (BAY 57-9352)] | 92.0
Cc1ccc(Nc2nccc(N(C)c3ccc4c(C)n(C)nc4c3)n2)cc1S(N)(=O)=O.Cl [Pazopanib HCl] | 71.0
N#CC1(c2ccc(NC(=O)c3cccnc3NCc3ccncc3)cc2)CCCC1 [Apatinib (YN968D1)] | 98.6
O=C(Cc1ccc(-c2ccc(OCCN3CCOCC3)cc2)cn1)NCc1ccccc1 [KX2-391, reference compound] | 19.7
COc1cc(Nc2ncc(F)c(Nc3ccc4c(n3)NC(=O)C(C)(C)O4)n2)cc(OC)c1OC [R406(free base)] | 44.5
COc1cc(Nc2c(C#N)cnc3cc(OCCCN4CCN(C)CC4)c(OC)cc23)c(Cl)cc1Cl [Bosutinib (SKI-606)] | 32.7
